src = PubChem BioAssay

// reported composite z-score for each item listed
Experiment: binders of probe aFST on microarray, primary screen, stem cell growth factor project, biochemical, small-molecule microarray, fluorescence 635/667 (AID 1086);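 further: score merges 667 nm fluorescence with signal-to-noise of each printed compound spot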
Assay conditions: higher = more signal
Give your answer as a number; write no unit.

Some solved entries appear below for comparison.
INSERT INTO results (compound, value_kind, observed_measurement) VALUES
  ('C[N+](C)(C)CCCCCCNC(=O)[C@@H]1C[C@@H]2C(=O)N[C@@H](Cc3ccccc3)C(=O)N2[C@@H]1c1ccc(O)cc1', 'composite z-score', 0.957),
  ('COCCOC(=O)N1C(=O)[C@@]2(c3cc(C#CCCO)ccc31)[C@H](C(=O)N1CCN(c3ncccn3)CC1)[C@H]1C(=O)O[C@H](c3ccccc3)[C@H](c3ccccc3)N1[C@@H]2c1ccc(O)cc1', 'composite z-score', -0.3);

In: Entry under review: O=C1C2C=CC(C(O)C(c3ccccc3)c3ccccc3)N(Nc3ccccc3)C2C(=O)N1c1ccccc1 (stereo not drawn) . Reported composite z-score?
Out: 1.01

###

Experiment: E. coli acrAB mutant growth effects, primary screen, E. coli filamentation inducers, strain DRC39, OD650, 48 h (AID 1179);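 further: screen aims at cell division blockers that make cells filament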
Assay conditions: E. coli DRC39 delta-acrAB growth, higher = more signal, called active from +8 up or from −8 down
Value kind: z-score
Give your answer as a number; write no unit.

Some solved entries appear below for comparison.
INSERT INTO assay_data (compound, observed_measurement) VALUES
  ('COC(=O)C1=CC(CCCO)=CC(C2CC2)N(Cc2cccc(OC(F)(F)F)c2)C=C1C(=O)OC (stereo unspecified)', 1.1),
  ('C[C@H]1NC(=O)C([C@@H](C)OCc2ccccc2)NC(=O)[C@@]23C(=O)N[C@@H](Cc4ccccc4)C2[C@H](C)[C@@]2(C)O[C@H]2C3/C=C/C/C=C\CNC1=O (stereo partly specified)', 0.545),
  ('CCCC[C@@H]1C[C@H]1[C@@H](NC(=O)Cc1ccccc1)c1ccc(Cl)cc1', -0.162);

In: Entry under review: COCCOC(=O)N1C(=O)[C@@]2(c3cc(C#CC4=CCCCC4)ccc31)[C@H](C(=O)N1CCN(c3ncccn3)CC1)[C@H]1C(=O)O[C@H](c3ccccc3)[C@H](c3ccccc3)N1[C@@H]2c1ccccc1OCCO . Reported z-score?
Out: -0.514

In: Entry under review: CCCCCN1CC=CC23O[C@@H]4C=CCOC(=O)[C@@H]4[C@H]2C(=O)N(CCCCCO)[C@@H]3C1=O (stereo partly specified) . Reported z-score?
Out: -0.352

In: Entry under review: COC(=O)[C@@]1(Cc2ccc(F)cc2)[C@H]2c3cc(C(=O)N4CCCC4)n(CCO)c3C[C@H]2CN1C(=O)c1ccccc1 . Reported z-score?
Out: -0.654

In: Entry under review: C=CCOC(=O)[C@H]1[C@@H]2C(=O)O[C@@H](c3ccccc3)[C@@H](c3ccccc3)N2[C@@H](c2ccc(OCCOC(=O)[C@@H]3C[C@@H]4C(=O)N[C@@H](CC(C)C)C(=O)N4[C@@H]3c3ccc(O)cc3)cc2)[C@]12C(=O)Nc1ccc(I)cc12 . Reported z-score?
Out: 1.3

In: Entry under review: C=CC[C@@]12N=C(c3ccc(OCCCO)cc3)O[C@@H]1c1ccccc1N(Cc1ccccc1)C2=O . Reported z-score?
Out: 0.666

In: Entry under review: COc1cc(OC)c(C(O)C2C=CC3C(=O)N(c4ccccc4)C(=O)C3N2Nc2ccccc2F)cc1Br (stereo unspecified) . Reported z-score?
Out: -0.595

In: Entry under review: CCCCC(=C=CC[C@@H](O)c1cccc(OCCO)c1)C[C@@H](O)COCc1ccccc1 . Reported z-score?
Out: 0.577

In: Entry under review: COc1ccc([Si](C)(C)[C@@H]2[C@@H](CC(=O)N(CCO)Cc3ccccc3)O[C@]3(C(=O)N(Cc4ccc(N5CCC5=O)cc4)c4ccccc43)[C@H]2C)cc1 . Reported z-score?
Out: 0.358

In: Entry under review: [N-]=[N+]=NCc1ccccc1[C@@H]1OC(c2ccc(OCCCO)cc2)=N[C@]1(Cc1ccccc1)C(=O)NCc1ccccc1 . Reported z-score?
Out: 0.065
